# Test system: mu opiate receptor (MOR)
# Test name: MOR agonist activity using [35S]GTPγS binding assay in striatal membranes
# Format: biochemical
# Condition description: Series C-2; 1 μM compound + 1 μM β-FNA
Measurement name: MOR agonist activity, percent [35S]GTPγS binding at the stated compound concentration (%)

- Compound: "CC(=O)c1ccc(S(=O)(=O)N2CC(CN(C)C)OC23CCN(CC2CC2)CC3)cc1 (stereo not drawn) [Compound C0128M]"
  Val: 63.9
- Compound: "COc1ccc(S(=O)(=O)N2CCOC23CCN(C)CC3)cc1 [Compound C0088M]"
  Val: 177.1
- Compound: "C=CCN1CCC2(CC1)OCCN2S(=O)(=O)c1ccc(OC)cc1 [Compound C0091M]"
  Val: 80.8
- Compound: "CC(=O)c1ccc(S(=O)(=O)N2CCOC23CCN(CC(=O)O)CC3)cc1 [Compound C0100M]"
  Val: 195.6
- Compound: "COc1ccc(S(=O)(=O)N2CCC3(NCCO3)C3CCCCC32)cc1 (stereo not drawn) [Compound C0144M-2]"
  Val: 125.9
- Compound: "CCc1ccc(S(=O)(=O)N2CCOC23CCN(CC2CC2)CC3)cc1 [Compound C0135M]"
  Val: 113.3
- Compound: "O=C1CN(C2CCc3ccccc3C2)C2(CCN(S(=O)(=O)c3ccccc3)CC2)N1 (stereo not drawn) [C0136M(P5)]"
  Val: 74.5
- Compound: "CC(=O)c1ccc(S(=O)(=O)N2CC(=O)NC23CCNCC3)cc1 [Compound C0086M]"
  Val: 152.3
- Compound: "COc1ccc(NC(=O)N2CCC3(CC2)NCCO3)cc1 [Compound C0151M-2]"
  Val: 212.8

---

# System: mu opiate receptor (MOR)
# Test name: MOR agonist activity using [35S]GTPγS binding assay in striatal membranes
# Format: biochemical
# Condition description: Series C-2; 0.1 μM compound; [35S]GTPγS binding to Gαo, striatal membranes
Each item that follows carries a reported MOR agonist activity, percent [35S]GTPγS binding at the stated compound concentration.
Measurement name: MOR agonist activity, percent [35S]GTPγS binding at the stated compound concentration (%)

- Compound: "CC(=O)c1ccc(S(=O)(=O)N2CCC3(CC2)OCCN3S(=O)(=O)c2ccc(C(C)=O)cc2)cc1 [Compound C0011]"
  Test target: "mu opiate receptor (MOR)"
  Unit info: "%"
  Val: 217.0
- Compound: "CCCCN1CCC2(CC1)OCCN2S(=O)(=O)c1ccc(OC)cc1 [Compound C0102M]"
  Test target: "mu opiate receptor (MOR)"
  Unit info: "%"
  Val: 131.8
- Compound: "CN1CCC2(CC1)OCCN2S(=O)(=O)c1ccc(S(C)(=O)=O)cc1 [Compound C0106M]"
  Test target: "mu opiate receptor (MOR)"
  Unit info: "%"
  Val: 171.8
- Compound: "O=C1CN(Cc2ccccc2)C2(CCN(CC3CC3)CC2)N1 [Compound C0125M]"
  Test target: "mu opiate receptor (MOR)"
  Unit info: "%"
  Val: 168.6
- Compound: "CCCCN1CCC2(CC1)OCCN2S(=O)(=O)c1ccc(C(C)=O)cc1 [Compound C0101M]"
  Test target: "mu opiate receptor (MOR)"
  Unit info: "%"
  Val: 138.2
- Compound: "O=C1CN(Cc2ccccc2)C2(CCN(C3CCCCC3)CC2)N1 [C0137M(P7)]"
  Test target: "mu opiate receptor (MOR)"
  Unit info: "%"
  Val: 180.8
- Compound: "O=C1CNC2(CCNCC2)N1Cc1ccccc1 [Compound C0114M]"
  Test target: "mu opiate receptor (MOR)"
  Unit info: "%"
  Val: 114.0
- Compound: "COc1ccc(S(=O)(=O)N2CCC3(CC2)NCCO3)cc1 [Compound C0026]"
  Test target: "mu opiate receptor (MOR)"
  Unit info: "%"
  Val: 207.2
- Compound: "CC(=O)c1ccc(S(=O)(=O)N2CC(CN(C)C)OC23CCN(CC2CC2)CC3)cc1 (stereo not shown) [Compound C0128M]"
  Test target: "mu opiate receptor (MOR)"
  Unit info: "%"
  Val: 197.8
- Compound: "CCN1CCC2(CC1)OCCN2S(=O)(=O)c1ccc(OC)cc1 [Compound C0089M]"
  Test target: "mu opiate receptor (MOR)"
  Unit info: "%"
  Val: 234.5
- Compound: "COc1ccc(S(=O)(=O)N2CCSC23CCNCC3)cc1 [S-C0027]"
  Test target: "mu opiate receptor (MOR)"
  Unit info: "%"
  Val: 156.2
- Compound: "CC(=O)c1ccc(S(=O)(=O)N2CCC3(CC2)OCCN3S(C)(=O)=O)cc1 [Compound C0056]"
  Test target: "mu opiate receptor (MOR)"
  Unit info: "%"
  Val: 98.6
- Compound: "O=C1CN(C2CCc3ccccc3C2)C2(CCN(S(=O)(=O)c3ccccc3)CC2)N1 (stereo not shown) [C0136M(P5)]"
  Test target: "mu opiate receptor (MOR)"
  Unit info: "%"
  Val: 176.8

---

Parameter: inhibition at 0.01 µM. Scope: all listed entries.
# Test target: FLNA pentapeptide of SEQ ID NO: 1 (Bn-VAKGL) (Homo sapiens, UniProt P21333)
# Test name: FITC-NLX-based FLNA screening assay (inhibition of FITC-naloxone binding to Bn-VAKGL on streptavidin plates)
# Condition description: read-out: Percent Binding Inhibition, FLNA-binding compound 0.01 μM; 10 nM FITC-NLX

- Compound: "Cc1ccc(S(=O)(=O)N2CCC3(CC2)OCCN3S(=O)(=O)c2ccc(C)cc2)cc1 [Compound C0001]"
  inhibition at 0.01 µM, %: 34.8
- Compound: "COc1ccc(C(=O)CC2c3c(cc4c(c3OC)OCO4)CC[N+]2(C)C)c(O)c1 (centres unmarked) [Compound B0033]"
  inhibition at 0.01 µM, %: 42.1
- Compound: "C=CCN1CC[C@]23c4c5ccc(O)c4O[C@H]2C(=O)CC[C@@]3(O)[C@H]1C5 [Naloxone Control, naloxone, reference compound]"
  inhibition at 0.01 µM, %: 39.9
- Compound: "O=C1CN(C2CCc3ccccc3C2)C2(CCN(S(=O)(=O)c3ccccc3)CC2)N1 (centres unmarked) [C0136M(P5)]"
  inhibition at 0.01 µM, %: 46.7
- Compound: "COc1c2c(cc3c1C(CC(=O)c1ccc(O)c(C)c1)[N+](C)(C)CC3)OCO2 (centres unmarked) [Compound B0002]"
  inhibition at 0.01 µM, %: 40.2
- Compound: "CN1CCC2(CC1)OCCN2S(=O)(=O)c1ccc(S(C)(=O)=O)cc1 [Compound C0106M]"
  inhibition at 0.01 µM, %: 45.8
- Compound: "O=S(=O)(c1ccc(Br)cc1)N1CCC2(CC1)OCCN2S(=O)(=O)c1ccc(Br)cc1 [Compound C0025]"
  inhibition at 0.01 µM, %: 37.2
- Compound: "COc1ccccc1CC(=O)CC1c2c(cc3c(c2OC)OCO3)CC[N+]1(C)C (centres unmarked) [Compound 5009]"
  inhibition at 0.01 µM, %: 42.5

---

# Test system: mu opiate receptor (MOR)
# Test name: MOR agonist activity using [35S]GTPγS binding assay in striatal membranes
# Assay type: biochemical
# Condition description: Series B; 0.1 μM compound; [35S]GTPγS binding to Gαo, striatal membranes
The entries below are paired with their reported MOR agonist activity, percent [35S]GTPγS binding at the stated compound concentration.
Measurement name: MOR agonist activity, percent [35S]GTPγS binding at the stated compound concentration (%)

- Molecule: "COc1c2c(cc3c1C(CC(=O)/C=C/c1ccc(Cl)cc1)[N+](C)(C)CC3)OCO2 (centres unmarked) [Compound B0019]"
  Test target: "mu opiate receptor (MOR)"
  Unit info: "%"
  Val: 101.0
- Molecule: "COc1ccc(OC)c(CCC(=O)CC2c3c(cc4c(c3OC)OCO4)CC[N+]2(C)C)c1 (centres unmarked) [Compound B0044]"
  Test target: "mu opiate receptor (MOR)"
  Unit info: "%"
  Val: 87.3
- Molecule: "COc1ccc(C(=O)CC2c3c(cc4c(c3OC)OCO4)CC[N+]2(C)C)cc1C (centres unmarked) [Compound B0021]"
  Test target: "mu opiate receptor (MOR)"
  Unit info: "%"
  Val: 126.9
- Molecule: "COc1cc(CC(=O)CC2c3c(cc4c(c3OC)OCO4)CC[N+]2(C)C)cc(OC)c1OC (centres unmarked) [Compound B0008]"
  Test target: "mu opiate receptor (MOR)"
  Unit info: "%"
  Val: 148.3
- Molecule: "COc1c2c(cc3c1C(CC(=O)c1ccncc1)[N+](C)(C)CC3)OCO2 (centres unmarked) [Compound B0005]"
  Test target: "mu opiate receptor (MOR)"
  Unit info: "%"
  Val: 89.2
- Molecule: "COc1c2c(cc3c1C(CC(=O)Cc1ccccc1C)N(C)CC3)OCO2 (centres unmarked) [Compound B0053]"
  Test target: "mu opiate receptor (MOR)"
  Unit info: "%"
  Val: 160.2
- Molecule: "COc1c2c(cc3c1C(CC(O)CCc1ccccc1)[N+](C)(C)CC3)OCO2 (centres unmarked) [Compound B0052]"
  Test target: "mu opiate receptor (MOR)"
  Unit info: "%"
  Val: 98.2
- Molecule: "COc1c2c(cc3c1C(CC(=O)CCc1ccc(O)cc1)[N+](C)(C)CC3)OCO2 (centres unmarked) [Compound B0028]"
  Test target: "mu opiate receptor (MOR)"
  Unit info: "%"
  Val: 199.1
